Reported values of z-score for individual entries
assay_details: RPMI8226 myeloma cell viability, profiling panel, resazurin fluorescence, basal, 24 h, PK04 Diversity Set (AID 1180);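 further: RPMI8826 multiple myeloma cell line at 5000 cells per well; test concentration not given here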
condition_parameters: higher = more signal

Example cases with answers are listed next.
Reported z-score for CO[C@@H]1COC(=O)CC=C[C@H](C)[C@H](OC)COC(=O)[C@@H]2CCCN2C(=O)CC=C[C@H]1C : what is it?
0.306

Reported z-score for C#CCCCON=C1C[C@@H](O)[C@@H](O)[C@@H]2[C@@H]3C(=O)N(C[C@@H]4CCCO4)C(=O)[C@@H]3CC[C@H]12 : what is it?
-0.179

Reported z-score for CC(CCN1CCc2nc(-c3ccccc3)c(-c3ccccc3)cc2C1)=NO[C@@H](C)c1cc(-c2c(C)cc(C)cc2C)no1 : what is it?
0.812

Reported z-score for CC(=O)OC[C@H]1O[C@H](CCON=C(C)C)C=C[C@@H]1OC(C)=O : what is it?
-0.0326

Reported z-score for CN1CCc2nc(-c3ccccc3)c(-c3ccccc3)cc2C1 : what is it?
0.639

Next:
Reported z-score for COCOc1ccc(Br)cc1C(=O)C=Cc1ccc2c(c1)OCO2 : what is it?
-3.36

Reported z-score for CO[C@H]1COC(=O)CCC[C@H](C)[C@H](OC)COC(=O)CC=C[C@@H]1C : what is it?
0.541

Reported z-score for Cc1cc2c(nc1C)CCCCN2CC(O)CN1CCCc2nc(-c3ccc(Br)cc3)ccc21 (stereo not drawn) : what is it?
-1.48

Reported z-score for CCOC(=O)CCN1C(=O)[C@H]2[C@H]3[C@H](O)[C@H](O)CC(=NOCC=C(C)CCC=C(C)C)[C@@H]3CC[C@H]2C1=O : what is it?
-0.871

Reported z-score for O=C1C2=CC[C@H]3C(=O)N(C[C@@H]4CCCO4)C(=O)[C@H]3[C@H]2[C@H](O)[C@@H]2O[C@H]12 : what is it?
-1.7

Reported z-score for CCOC(=O)[C@H](CC(C)C)NC(=O)CCC1CC(OC(=O)NCCc2ccc(F)cc2)CC2(CCCC(COC(=O)NCCOC)O2)O1 (stereo partly drawn) : what is it?
0.464

Reported z-score for C[C@@H](c1ccccc1)N1C(=O)[C@H]2[C@H]3[C@H](O)[C@H](O)CC(=NOCc4ccccc4)[C@@H]3CC[C@H]2C1=O : what is it?
-0.181

Reported z-score for COC(=O)CC=C[C@@H](C)[C@@H](C=NOC[C@@H](C)[C@H](OCc1ccccc1)C(C)C)OC : what is it?
-0.286

Reported z-score for C=CC[C@@H]1C=C[C@H](ON=C2C[C@@H](O)[C@@H](O)[C@@H]3[C@@H]4C(=O)N(CC)C(=O)[C@@H]4CC[C@@H]23)[C@@H](CO)O1 : what is it?
-0.216

Reported z-score for CCCNC(=O)OC[C@H]1O[C@H](CCON=C[C@@H](C)[C@H](OCc2ccccc2)C(C)C)C=C[C@@H]1Oc1ccc(OC)cc1 : what is it?
-0.58

Reported z-score for CO[C@H]1COC(=O)CC=C[C@H](C)[C@H](OC)COC(=O)[C@@H](C)NC(=O)CC=C[C@@H]1C : what is it?
0.379

Reported z-score for CON=C(C)CCN1CCCc2nc(C)c(C)cc21 : what is it?
-0.22

Reported z-score for C[C@@H]1CC[C@H]2C(=O)OC(Cc3ccccc3)CN2[C@H]1c1ccc(Br)cc1 (stereo partly drawn) : what is it?
-0.726

Reported z-score for CO[C@@H](C1CCCCC1)[C@@H](C)[C@H](OCc1cccc(Br)c1)[C@@H](C)CO : what is it?
-0.835

Reported z-score for C[C@@H]1CC[C@H]2C(=O)O[C@@H](CN=[N+]=[N-])CN2[C@H]1c1ccc(Br)cc1 : what is it?
-4.06

Reported z-score for CC(CCN1CCCc2nc(C)c(C)cc21)=NOC[C@@H](O)COCc1ccco1 : what is it?
0.592
